growth inhibition values for the molecules below.
assay: NCI Yeast Anticancer Drug Screen. Data for the cln2 rad14 strain (AID 165);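 also: 0% = growth equal to vehicle treated cultures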; details: S. cerevisiae cln2 rad14 strain, at 50.0 µM, active compounds read high
This is part of a sample that, as a whole, favours compounds with a hit. Of some 79,000 tested, about 15% had one in any assay.
A number alone suffices; assume %.

[[record]]
molecule = "CCOC(=O)c1ccc(NC(=O)CCCCl)cc1"
measurement_unit = "%"
val = 8.55


So for "O=C1C2=C(OCCO2)C(=O)C2=C1OCO2" , the logged growth inhibition turned out to be 7.55

Quick note, growth inhibition for "CCOC(=O)/C=C/C(=O)N(C)c1ccccc1" landed at -0.5

Documented growth inhibition of O=C1CC(c2ccccc2)C(c2ccccc2)C1C(=O)OCCc1ccccc1 (centres undefined) : 1.5
